Recorded values, source ChEMBL document CHEMBL3124803.

Tested on: OVCAR-8
EXPERIMENT_NOTES: Cytotoxicity against human OVCAR8 cells assessed as growth inhibition after 72 hrs by MTT assay
Type: functional, cell-based
APPLIED_CONDITIONS: OVCAR-8, 72 h
Would you mind telling me the reported IC50 of each entry?
Numbers only, in µM.

Nc1ncnc(N2CCN(C(=O)C(N)Cc3ccc(Cl)cc3)CC2)c1Br (racemic): 22.7

Please state recorded IC50 (tested on OVCAR-8) of Nc1ncnc(N2CCN(C(=O)C(N)Cc3ccc(Cl)cc3)CC2)c1Cl (racemic)
26.1

* * *

Would you mind telling me the reported IC50 of each entry?
STUDY_TARGET: RAC-alpha serine/threonine-protein kinase (Homo sapiens, UniProt P31749)
Sequence (P31749 whole entry): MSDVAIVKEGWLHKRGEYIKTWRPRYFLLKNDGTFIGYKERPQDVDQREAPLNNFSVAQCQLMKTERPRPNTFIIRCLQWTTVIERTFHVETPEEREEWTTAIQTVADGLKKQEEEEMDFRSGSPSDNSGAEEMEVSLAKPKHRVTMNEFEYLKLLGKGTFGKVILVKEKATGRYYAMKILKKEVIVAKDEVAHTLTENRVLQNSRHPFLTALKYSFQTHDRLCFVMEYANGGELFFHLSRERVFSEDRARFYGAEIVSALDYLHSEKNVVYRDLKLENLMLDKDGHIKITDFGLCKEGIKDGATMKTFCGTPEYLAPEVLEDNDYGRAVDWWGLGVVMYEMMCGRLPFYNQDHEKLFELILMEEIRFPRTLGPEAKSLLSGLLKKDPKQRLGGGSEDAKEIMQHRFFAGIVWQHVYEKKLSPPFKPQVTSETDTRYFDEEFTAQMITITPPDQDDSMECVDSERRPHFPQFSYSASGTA
EXPERIMENT_NOTES: Inhibition of AKT1 (unknown origin) using ATP/eNOS as substrate incubated for 5 mins prior to substrate addition measured after 30 mins by fluorescence polarization assay
Numbers only, in µM.

Nc1ncnc(N2CCN(C(=O)[C@@H](N)Cc3ccccc3)CC2)c1Cl: 1.83

Please give the measured IC50 for this compound: `NCC1(c2ccc(Cl)c(Cl)c2)CCN(c2cc(N)ncn2)CC1`
4.32
